Recorded inhibition at 1 µM by entry
Target: FAAH (Homo sapiens (Human))
Sequence (O00519 whole entry): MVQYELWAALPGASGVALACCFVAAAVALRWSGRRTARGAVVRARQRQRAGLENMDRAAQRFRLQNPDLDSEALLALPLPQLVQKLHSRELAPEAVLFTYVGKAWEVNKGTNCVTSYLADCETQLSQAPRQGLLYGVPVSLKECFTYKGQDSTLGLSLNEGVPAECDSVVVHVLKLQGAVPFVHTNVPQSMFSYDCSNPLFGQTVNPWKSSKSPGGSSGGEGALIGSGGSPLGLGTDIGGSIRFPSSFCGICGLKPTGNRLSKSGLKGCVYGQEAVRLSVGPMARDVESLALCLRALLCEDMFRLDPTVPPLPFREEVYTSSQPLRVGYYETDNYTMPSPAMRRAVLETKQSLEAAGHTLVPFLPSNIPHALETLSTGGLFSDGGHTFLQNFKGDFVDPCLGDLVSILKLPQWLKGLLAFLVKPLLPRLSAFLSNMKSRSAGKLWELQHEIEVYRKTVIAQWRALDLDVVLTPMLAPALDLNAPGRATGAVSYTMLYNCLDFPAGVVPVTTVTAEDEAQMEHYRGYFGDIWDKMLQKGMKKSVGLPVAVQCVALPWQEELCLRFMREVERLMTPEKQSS
Assay: In vitro competitive activity-based protein profiling, human proteomes (prefrontal cortex or PC3 cell membrane fractions)
Format: biochemical
Conditions: 1 μM, human proteome; read-out: FAAH % inh. 1 μM (human)
outcome measure: inhibition at 1 µM

molecule=CS(=O)(=O)Nc1ccn(C(=O)N2CCC3(CCN(Cc4ccc(Cl)cc4N4CCCC4)C3)CC2)n1 endpoint_result="0 to 25%"
molecule=CS(=O)(=O)Nc1ccn(C(=O)N2CCC(Oc3ccc(C(F)(F)F)cc3N3CCCC3=O)CC2)n1 endpoint_result="0 to 25%"
molecule=CC(=O)Nc1ccn(C(=O)N2CCN(Cc3cccc(OC(F)(F)F)c3)CC2)n1 endpoint_result="0 to 25%"
molecule=CC(=O)N(Cc1ccc(C(F)(F)F)cc1N1CCCC1)C1(C)CCN(C(=O)n2ccc(NS(C)(=O)=O)n2)CC1 endpoint_result="0 to 25%"
molecule=CC(=O)Nc1ccn(C(=O)N2CCC3(CC2)CN(Cc2ccc(C(N)=O)c(C(F)(F)F)c2)C3)n1 endpoint_result="0 to 25%"
molecule="CC(=O)Nc1ccn(C(=O)N2CC3CN(Cc4ccc(C(N)=O)c(C(F)(F)F)c4)CC3C2)n1 (stereo not drawn)" endpoint_result="0 to 25%"
molecule=CS(=O)(=O)Nc1ccn(C(=O)N2CCC(Oc3ccc(C(F)(F)F)cc3-c3nnco3)CC2)n1 endpoint_result="0 to 25%"
molecule=CS(=O)(=O)Nc1ccn(C(=O)N2CCN(Cc3ccc(Cl)c(N4CCC(F)(F)CC4)c3)CC2)n1 endpoint_result="0 to 25%"
molecule="CS(=O)(=O)Nc1ccn(C(=O)N2CCC3(CCN(Cc4ccc(N5CC6COCC6C5)c(Cl)c4)C3)CC2)n1 (stereo not drawn)" endpoint_result="25 to 50%"
molecule=C[C@@H](c1ccc(Cl)c(N2CCC(F)CC2)c1)N1CCN(C(=O)n2ccc(NS(C)(=O)=O)n2)CC1 endpoint_result="0 to 25%"
molecule=CS(=O)(=O)Nc1ccn(C(=O)N2CCC(Oc3ccc(C(F)(F)F)cc3N3C4CCC3COC4)CC2)n1 endpoint_result="0 to 25%"
molecule=CS(=O)(=O)Nc1ccn(C(=O)N2CCC(Oc3ccc(C(F)(F)F)c(OC4CCCC4)c3)CC2)n1 endpoint_result="0 to 25%"
molecule="C[C@H]1CN(Cc2ccc(Cl)c(N3CC4COCC4C3)c2)CCN1C(=O)n1ccc(NS(C)(=O)=O)n1 (stereo partly drawn)" endpoint_result="0 to 25%"
molecule=CS(=O)(=O)Nc1ccn(C(=O)N2CCN(Cc3ccc(C(F)(F)F)cc3S(=O)(=O)C3CC3)CC2)n1 endpoint_result="0 to 25%"
molecule="CC(=O)Nc1ccn(C(=O)N2CC3CN(Cc4cccc(OC(F)(F)F)c4)CC3C2)n1 (stereo not drawn)" endpoint_result="25 to 50%"
